Recorded phosphorylation enrichment, one value per entry.
target: FGFR3 (UniProt P22607); test: phosphorylation enrichment, bacterial display (enrichment ratio); higher = better substrate or ligand; peptides without Tyr show the background
Sequence (P22607 whole entry, looked up): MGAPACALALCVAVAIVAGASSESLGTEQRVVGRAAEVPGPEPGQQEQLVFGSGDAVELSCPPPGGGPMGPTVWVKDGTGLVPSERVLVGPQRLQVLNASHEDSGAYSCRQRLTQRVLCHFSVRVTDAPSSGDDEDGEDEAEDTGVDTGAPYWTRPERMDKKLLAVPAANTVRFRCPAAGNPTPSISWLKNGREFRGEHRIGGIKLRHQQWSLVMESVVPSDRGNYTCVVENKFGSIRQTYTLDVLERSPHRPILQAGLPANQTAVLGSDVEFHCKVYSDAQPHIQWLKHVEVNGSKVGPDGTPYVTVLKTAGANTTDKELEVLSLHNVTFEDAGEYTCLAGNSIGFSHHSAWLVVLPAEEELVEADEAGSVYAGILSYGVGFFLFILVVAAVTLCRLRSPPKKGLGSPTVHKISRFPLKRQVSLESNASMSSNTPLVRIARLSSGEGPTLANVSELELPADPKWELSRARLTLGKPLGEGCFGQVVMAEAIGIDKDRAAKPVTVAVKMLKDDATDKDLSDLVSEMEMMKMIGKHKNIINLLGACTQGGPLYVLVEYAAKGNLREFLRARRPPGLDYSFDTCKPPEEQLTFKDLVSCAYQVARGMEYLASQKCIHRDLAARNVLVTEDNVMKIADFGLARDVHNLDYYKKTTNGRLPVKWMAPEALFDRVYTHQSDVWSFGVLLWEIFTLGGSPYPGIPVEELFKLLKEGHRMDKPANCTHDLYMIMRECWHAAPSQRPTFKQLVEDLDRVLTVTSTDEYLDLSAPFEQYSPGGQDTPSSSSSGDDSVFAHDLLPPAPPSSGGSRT

[
  {
    "Monomer sequence": "VVGMLYVGGLP [LAMA2_Y2886]",
    "phosphorylation enrichment": 0.683
  },
  {
    "Monomer sequence": "IIGNGYYFRVF [MYBPC3_Y1135]",
    "phosphorylation enrichment": 0.79
  },
  {
    "Monomer sequence": "TLQNMYGCDVG [HLA-B_Y123_S121N]",
    "phosphorylation enrichment": 0.669
  },
  {
    "Monomer sequence": "EILLSYPRTGF [TGM1_Y365_L366P_YF]",
    "phosphorylation enrichment": 0.555
  },
  {
    "Monomer sequence": "SISLKYEGRVY [ABL1_Y167_R166K]",
    "phosphorylation enrichment": 0.897
  }
]

Given the entry NSVLVYRNGDP [DCDC2_Y22_K17N] , report its measured phosphorylation enrichment.
0.533

Name the recorded phosphorylation enrichment for ITVCDYTNPCT [MYD88_Y276] .
0.719

----------
target: EPHB2 (UniProt P29323); experiment: phosphorylation enrichment, bacterial display (enrichment ratio); higher = better substrate or ligand; peptides without Tyr show the background
Sequence (P29323 whole entry, looked up): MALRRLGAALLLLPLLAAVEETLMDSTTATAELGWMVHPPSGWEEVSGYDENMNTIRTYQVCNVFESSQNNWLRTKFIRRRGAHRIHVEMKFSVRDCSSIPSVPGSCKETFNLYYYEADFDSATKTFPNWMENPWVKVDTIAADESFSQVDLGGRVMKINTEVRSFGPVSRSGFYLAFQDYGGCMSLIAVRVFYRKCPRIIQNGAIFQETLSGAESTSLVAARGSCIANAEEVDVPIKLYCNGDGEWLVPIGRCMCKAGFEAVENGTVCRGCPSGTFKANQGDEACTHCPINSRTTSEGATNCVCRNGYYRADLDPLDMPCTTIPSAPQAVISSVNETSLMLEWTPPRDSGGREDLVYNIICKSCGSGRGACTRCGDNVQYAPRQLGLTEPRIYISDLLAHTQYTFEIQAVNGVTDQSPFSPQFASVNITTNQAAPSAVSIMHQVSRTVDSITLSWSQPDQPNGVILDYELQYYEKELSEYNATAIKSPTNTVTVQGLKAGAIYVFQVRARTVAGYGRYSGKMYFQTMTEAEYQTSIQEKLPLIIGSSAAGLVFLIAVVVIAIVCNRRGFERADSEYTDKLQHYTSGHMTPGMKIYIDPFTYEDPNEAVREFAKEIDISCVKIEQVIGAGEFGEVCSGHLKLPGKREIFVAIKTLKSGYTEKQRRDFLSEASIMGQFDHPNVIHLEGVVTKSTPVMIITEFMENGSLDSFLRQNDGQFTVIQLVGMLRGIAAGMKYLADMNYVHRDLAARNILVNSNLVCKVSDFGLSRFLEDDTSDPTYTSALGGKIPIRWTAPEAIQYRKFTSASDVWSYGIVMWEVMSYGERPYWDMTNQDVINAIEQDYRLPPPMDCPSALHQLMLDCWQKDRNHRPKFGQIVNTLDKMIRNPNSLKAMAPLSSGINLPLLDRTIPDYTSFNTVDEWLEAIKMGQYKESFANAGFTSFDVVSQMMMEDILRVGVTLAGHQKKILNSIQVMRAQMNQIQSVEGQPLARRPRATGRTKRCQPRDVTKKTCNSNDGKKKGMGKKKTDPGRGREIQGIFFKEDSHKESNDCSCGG
Recorded phosphorylation enrichment for the following sequences
// response body must contain only the number

[
  {
    "Monomer sequence": "NCFKFYMSDDI [ATRX_Y204_YF]",
    "phosphorylation enrichment": 0.53
  },
  {
    "Monomer sequence": "EFENSYIFDIN [GAB1_Y83]",
    "phosphorylation enrichment": 0.58
  },
  {
    "Monomer sequence": "EEKSCYILHSS [PATJ_Y783_E780K]",
    "phosphorylation enrichment": 0.647
  },
  {
    "Monomer sequence": "RNLLIYTEFGK [HGD_Y166_G161R]",
    "phosphorylation enrichment": 1.12
  },
  {
    "Monomer sequence": "GAEIVYKSPVV [MAPT_Y711]",
    "phosphorylation enrichment": 0.581
  }
]

Any idea what its phosphorylation enrichment is? The sequence is TEAEPYYCSLR [NPHS1_Y1138_R1140C]
1.43

// returns reported phosphorylation enrichment for input WSQAMYPDLGP [STARD8_Y330_R327Q]
0.636

I'd like to know its phosphorylation enrichment. The sequence in question is IKAGAYDFPSL [CAMK2A_Y230_P235L]
0.493

I would be grateful if you could share the reported phosphorylation enrichment for VQQVIYATRAL [MYH7_Y422_G425R] .
0.505

----------
Item-by-item account of phosphorylation enrichment
system: Fer (mouse); experiment: phosphorylation enrichment, bacterial display (enrichment ratio); higher = better substrate or ligand; peptides without Tyr show the background
Please state the value as a number alone, without comment.

[
  {
    "Monomer sequence": "HKLSYCEYDFE [BTK_Y40_Y40C]",
    "phosphorylation enrichment": 0.687
  },
  {
    "Monomer sequence": "SECCKYKIDNL [OSMR_Y689_P694L]",
    "phosphorylation enrichment": 0.473
  },
  {
    "Monomer sequence": "PELINYHQPNS [BTK_Y361_H364P]",
    "phosphorylation enrichment": 0.678
  },
  {
    "Monomer sequence": "YRIDHYLGKEM [G6PD_Y202]",
    "phosphorylation enrichment": 0.445
  }
]

Reported phosphorylation enrichment for VSFDEYRFRSF [CFTR_Y515_V520F_YF] : what is it?
0.502

// returns reported phosphorylation enrichment for input WNDPDYMDSRR [GAA_Y407_L405P]
0.432

Which phosphorylation enrichment value belongs to SSFDTYHLSRE [KIR3DL2_Y253_I252T_YF] ?
0.539

Please report the recorded phosphorylation enrichment for MANYVYKAGPS [MAML2_Y515_M514V] .
0.343

----------
test system: c-Abl (mouse); assay: phosphorylation enrichment, bacterial display (enrichment ratio); higher = better substrate or ligand; peptides without Tyr show the background
Assay metric: phosphorylation enrichment

Below, each entry is followed by its recorded phosphorylation enrichment result.
[
  {
    "Monomer sequence": "WNDPDYMDSRR [GAA_Y407_L405P]",
    "Reported result": 0.614
  },
  {
    "Monomer sequence": "SLLLSYFLIKW [NUP160_Y773_P768S_YF]",
    "Reported result": 1.05
  }
]

Please report the recorded phosphorylation enrichment for MEFAKYGSLRG [RET_Y809_V804M_YF] .
0.454

----------
biological target: Fyn (UniProt P06241); experiment: phosphorylation enrichment, bacterial display (enrichment ratio); higher = better substrate or ligand; peptides without Tyr show the background
Sequence (P06241 whole entry, looked up): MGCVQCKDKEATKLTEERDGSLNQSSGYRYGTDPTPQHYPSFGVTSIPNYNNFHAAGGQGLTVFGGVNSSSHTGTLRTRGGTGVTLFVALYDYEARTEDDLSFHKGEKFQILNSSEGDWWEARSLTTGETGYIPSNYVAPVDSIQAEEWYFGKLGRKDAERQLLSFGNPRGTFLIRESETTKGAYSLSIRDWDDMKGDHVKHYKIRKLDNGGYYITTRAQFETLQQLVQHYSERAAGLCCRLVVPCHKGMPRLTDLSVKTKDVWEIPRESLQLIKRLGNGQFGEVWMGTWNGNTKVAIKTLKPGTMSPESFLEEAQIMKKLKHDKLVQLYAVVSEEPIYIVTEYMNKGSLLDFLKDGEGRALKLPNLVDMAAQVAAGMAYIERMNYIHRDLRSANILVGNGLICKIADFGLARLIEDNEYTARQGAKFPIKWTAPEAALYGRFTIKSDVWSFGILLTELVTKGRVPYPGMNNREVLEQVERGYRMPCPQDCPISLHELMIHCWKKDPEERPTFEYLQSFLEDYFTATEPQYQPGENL
Parameter phosphorylation enrichment: see the listing below.
No unit in the answer, only the number.

Illustrative cases are given below, each with its answer.
[
  {
    "Monomer sequence": "RSDSTYRMSAT [NHS_Y1532_S1531T]",
    "Reported result": 0.528
  },
  {
    "Monomer sequence": "DLLMQYPKAQG [FAM83C_Y600]",
    "Reported result": 0.385
  },
  {
    "Monomer sequence": "PDMHSYVVRFN [GRIN2D_Y732_M733V_YF]",
    "Reported result": 0.467
  },
  {
    "Monomer sequence": "LGSWTYTKTVS [ROS1_Y144]",
    "Reported result": 0.86
  },
  {
    "Monomer sequence": "QYQLKYSETPF [SIX6OS1_Y129]",
    "Reported result": 0.591
  },
  {
    "Monomer sequence": "AGTILSHAHLD [ASS1_Y291_Y291S]",
    "Reported result": 0.367
  },
  {
    "Monomer sequence": "HGAKVYIDPFT [EPHB4_Y590_T587A]",
    "Reported result": 0.792
  },
  {
    "Monomer sequence": "KNKKDYYDMYE [SLC26A3_Y526]",
    "Reported result": 0.601
  },
  {
    "Monomer sequence": "EILLSYPRTGF [TGM1_Y365_L366P_YF]",
    "Reported result": 0.541
  },
  {
    "Monomer sequence": "GEEIKDMLWLS [OTC_Y55_Y55D]",
    "Reported result": 0.475
  }
]

Give recorded phosphorylation enrichment with Fyn (UniProt P06241) for the following sequence: VGRVGYVSGWG [HP_Y280]
0.456

Find the measured phosphorylation enrichment: item RNIQQYNSFVS [PRKAR1A_Y373] , target or system Fyn (UniProt P06241).
0.648

# query: phosphorylation enrichment | item SSENPCATIKD [MEGF10_Y1030_Y1030C] | system: Fyn (UniProt P06241)
0.468

For Fyn (UniProt P06241), provide phosphorylation enrichment of TYAVSYLPDMS [FLNC_Y1602_T1599A] please.
0.589

Lab note: need phosphorylation enrichment for PSAEGYQDVRD [ABLIM1_Y439] on Fyn (UniProt P06241), anyone have it?
0.689

Which phosphorylation enrichment is reported with Fyn (UniProt P06241) for this entry: HSLLQYGGSAN [ANK1_Y624_R619H] ?
0.427

Missing value: phosphorylation enrichment, Fyn (UniProt P06241), entry RCNHPYLINGA [CHD7_Y1256_C1251R] . Fill in?
0.401

Report phosphorylation enrichment for TEAEPYYCSLR [NPHS1_Y1138_R1140C] tested on Fyn (UniProt P06241).
4.22

----------
target: c-Src SH2; assay: SH2 binding enrichment of the phosphorylated peptide, bacterial display (enrichment ratio); higher = better substrate or ligand; peptides without Tyr show the background;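 also: peptide library displayed on the E. coli surface as eCPX fusions, selected cells deep-sequenced, score is each peptide's frequency after selection divided by its frequency in the input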
Each entry below carries its recorded SH2 binding enrichment.
Provide a numeric answer; units are not to be included.

The cases that follow already have their SH2 binding enrichment on record.
[
  {
    "Monomer sequence": "SPPEVYAIMRG [NTRK1_Y757_C752S]",
    "Target entity": "c-Src SH2",
    "SH2 binding enrichment": 0.611
  },
  {
    "Monomer sequence": "LLDGEYFTLQI [TP53_Y327_P322L]",
    "Target entity": "c-Src SH2",
    "SH2 binding enrichment": 0.6
  },
  {
    "Monomer sequence": "IQRSLYDCPAS [PDGFRA_Y762_R764C]",
    "Target entity": "c-Src SH2",
    "SH2 binding enrichment": 2.57
  },
  {
    "Monomer sequence": "APSEFYDGDHD [HDAC3_Y414_N411S]",
    "Target entity": "c-Src SH2",
    "SH2 binding enrichment": 0.544
  }
]

What value of SH2 binding enrichment has been reported for the following sequence? REVPVYIGEDS [SYNM_Y460]
0.691

// SH2 binding enrichment lookup, key: FTGDIYSNSNL [LZTR1_Y141_YF]
0.415

# input sequence: YRIDHYLGKEM [G6PD_Y202] ; wanted: its SH2 binding enrichment
0.589

Given the entry GCRSKYVRLWG [KCNQ1_Y184_G186R] , report its measured SH2 binding enrichment.
1.54
